Data provenance is the NIST ThermoML archive (doi:10.1021/je501041r).

Study Conditions: 298.15 K; 101 kPa; Liquid; Capillary tube (Ostwald / Ubbelohde) method
Metric Name: log10 of viscosity (log10 of the value in mPa·s)
Please note: log10 values; quantity viscosity; unit mPa·s.

[[record]]
compound = "CCCCCO [pentan-1-ol]"
metric_name = "log10 of viscosity"
experimental_value = 0.54

[[record]]
compound = "CCCCCCCO [heptan-1-ol]"
metric_name = "log10 of viscosity"
experimental_value = 0.78

[[record]]
compound = "CCCO [propan-1-ol]"
metric_name = "log10 of viscosity"
experimental_value = 0.29


For CCCCCCO [hexan-1-ol] , what is its reported log10 of viscosity?
0.66

For CC(C)CC(C)(C)C [2,2,4-trimethylpentane] , what is its reported log10 of viscosity?
-0.32

---

Study Conditions: 308.15 K; 101 kPa; Liquid; Capillary tube (Ostwald / Ubbelohde) method
Form field: log10 viscosity (one value per entry).
Please note: log10 values; quantity viscosity; unit mPa·s.

[[record]]
sample_smiles = "CCCO"
experimental_value = 0.19

[[record]]
sample_smiles = "CC(C)CC(C)(C)C"
experimental_value = -0.37

[[record]]
sample_smiles = "CCCCCCO"
experimental_value = 0.53

[[record]]
sample_smiles = "CCCCCCCO"
experimental_value = 0.64


Okay, now this compound:
For "CCCCCO" , what is its reported log10 viscosity?
0.42

---

Study Conditions: 303.15 K; 101 kPa; Liquid; Vibrating tube method
Form field: mass density (one value per entry).
Provide the reading as a plain figure in kg/m3.

Consider the following illustrative entries.
[[record]]
sample_smiles = "CCCCCCO"
uom = "kg/m3"
experimental_value = 811.71

[[record]]
sample_smiles = "CC(C)CC(C)(C)C"
uom = "kg/m3"
experimental_value = 683.68

[[record]]
sample_smiles = "CCCCCO"
uom = "kg/m3"
experimental_value = 807.89

[[record]]
sample_smiles = "CCCCCCCO"
uom = "kg/m3"
experimental_value = 815.3


For "CCCO" , what is its reported mass density?
796.01

---

Form field: viscosity (one value per entry).
Study Conditions: 323.15 K; 101 kPa; Liquid; Capillary tube (Ostwald / Ubbelohde) method
± gives the expanded uncertainty stated by the source.
Kindly report the value followed by its unit.

Consider the following illustrative entries.
[[record]]
sample_smiles = "CCCO"
experimental_value = "1.117 ± 0.013 mPa·s"

[[record]]
sample_smiles = "CC(C)CC(C)(C)C"
experimental_value = "0.369 ± 0.005 mPa·s"

[[record]]
sample_smiles = "CCCCCCO"
experimental_value = "2.251 ± 0.028 mPa·s"

[[record]]
sample_smiles = "CCCCCCCO"
experimental_value = "2.851 ± 0.035 mPa·s"


Okay, now this compound:
For "CCCCCO" , what is its reported viscosity?
1.795 ± 0.022 mPa·s

---

Study Conditions: 313.15 K; 101 kPa; Liquid; Capillary tube (Ostwald / Ubbelohde) method
Metric Name: viscosity (mPa·s)
Provide the reading as a plain figure in mPa·s.

[[record]]
sample_smiles = "CCCCCO"
experimental_value = 2.317

[[record]]
sample_smiles = "CCCCCCCO"
experimental_value = 3.8

[[record]]
sample_smiles = "CCCO"
experimental_value = 1.384

[[record]]
sample_smiles = "CC(C)CC(C)(C)C"
experimental_value = 0.408


Okay, now this compound:
For "CCCCCCO" , what is its reported viscosity?
2.96
